PROTOCOL DESCRIPTION: soluble on expression in E. coli; label from the status in PepcDB or PDB records
OBSERVABLE: soluble on expression in E. coli

Reference set (5 entries):
SLSLESLEWMAFDSFLLWRSEESIDARILLVEINQNDNYSLTSTISNSSFIGVIEKLQVYQPKVIGLEVDQHLLINSQEDKLAKIFQKYKNLIANEKILPLQVHSYLDLPNEQITFADQILDNDGKSRRSLLAINTSNGYKLSLAMELARIYLAEKNISLENSRLGKTKLPRFLPNSGGYIRADASGFQVLINFRSGNQRFRTLSGEDIKNGKFNPEWIRDRIVIIGITNTHNQGFIPTSAITSVKSASTQVNKLEIQAHAISQIISAVLDGRPLINTWNDG	soluble
MSDAGGDVQVAPAAVAQGPMDKEGALRAVLRAAHHADGLAKGLHETCKALDKREAHFCVLAENCDEPQYVKLVETLCAEHQIPLIKVADKKIIGEYCGLCKYDKEGKARKVVGCSSAVVTNWGNEEQGRAILTDYFASKN	not soluble
MGFNVKTPLLATDVIIRLWDGENFKGIVLIERKYPPVGLALPGGFVEVGERVEEAAAREMREETGLEVRLHKLMGVYSDPERDPRAHVVSVVWIGDAQGEPKAGSDAKKVKVYRLEEIPLDKLVFDHKKIILDFLKGNY	soluble
MLIPAQENNVSLTATPSRIGQIMKYGFPGLDHVRSHSDYVLSYDRRNRVPHWVFEHLTAESVAKNDAVDRSKCDFKQDESIHPFFRSQNTDYRRSGYDRGHMAAAGNHRLHQKHCDETFYLSNMAPQVGQGFNRDAWNTLEAHVRRLTKTYSNVYVCTGPLYLPHKEDDGKSYVKYEVIGANTVAVPTHFYKVIVGESADHKLHMESYVMPNQVISNDTPISVFQVPPESVERSAGLLFFDQINRKQLTTINGKKVAAALEHHHHHH	soluble
MGSGEPNPAGKKKKYLKAALYVGDLDPDVTEDMLYKKFRPAGPLRFTRICRDPVTRSPLGYGYVNFRFPADAEWALNTMNFDLINGKPFRLMWSQPDDRLRKSGVGNIFIKNLDKSIDNRALFYLFSAFGNILSCKVVCDDNGSKGYAYVHFDSLAAANRAIWHMNGVRLNNRQVYVGRFKFPEERAAEVRTRDRATFTNVFVKNIGDDIDDEKLKELFCEYGPTESVKVIRDASGKSKGFGFVRYETHEAAQKAVLDLHGKSIDGKVLYVGRAQKKIERLAELRRRFERLRLKEKSRPPGVPIYIKNLDETINDEKLKEEFSSFGSISRAKVMMEVGQGKGFGVVCFSSFEEATKAVDEMNGRIVGSKPLHVTLGQARRRC	soluble

Input line: // soluble on expression in E. coli lookup, key: MNAILHDMAVPFYKPVSNECSLFEAASRKGLPLLLKGPTGCGKTRFVEHMAARMGRKLYTVACHDDLSAADLIGRYLLKGGATEWVDGPLTRAVREGAICYLDEVVEARKDVTVVLHPLTDNRRTLMIDRTGEELVAPPGFMLVASYNPGYQNILKRLKPSTRQRFLSIGFTFPDPVTETAVVARESGLSEAKVAPLVRLAGHVRALSGMDLEEGVSTRLLVYAASLMAGGMSIEAALEAAVIEPLTDEPDVAQALRDLIATVYGLEHHHHHH
Output line: not soluble

Input line: What value of measured soluble on expression in E. coli is listed for MNSSESSSNSEVSSSKTRTVKHAMGTSDNIPANPKRIVVLTNEGTEALLALGIKPVGAVKSWKGDPWYDYLKDDMKGVKNVGLETEPNVEAIAELKPDLIIGNKVRQEKIYDQLNAIAPTVFAESLAGNWKDNLTLYANAVNKADKGKEVIADFDKRVSDLKNKLGDQTNKTVSVVRFLSGESRIYYTDSFPGIILDQLGFKRPEKQVELFKKQKDQFTFSTDSKESIPDMDADVLFYFTYKADNAKENEKWANQWTSSSLWKNLKAVKSGNAHEVDDVVWTTAGGIKAANYLLDDIETYFLKTKLEHHHHHH ?
Output line: not soluble

Input line: soluble on expression in E. coli for MSLEIADLKVHFDIKEGKQWFWQPPKTLKAVDGVTLRLYEGETLGVVGESGCGKSTFARAIIGLVKATDGKVAWLGKDLLGMKADEWREVRSDIQMIFQDPLASLNPRMTIGEIIAEPLRTYHPKLSRQDVRDRVKAMMLKVGLLPNLINRYPHEFSGGQCQRIGIARALILEPKLIICDEPVSALDVSIQAQVVNLLQQLQREMGLSLIFIAHDLAVVKHISDRVLVMYLGHAVELGTYDEVYHNPLHPYTKALMLAVPIPDPDLERNKKIQLLEGELPSPINPPSEGHHHHHH ?
Output line: soluble

Input line: Entry MPPIPSRARVYAEVNPSRPREYWDYEAHMIEWGQIDDYQLVRKLGRGKYSEVFEGFKMSTDEKVVVKILKPVKKKKIKREIKILENLRGGTNIITLLDVVKDPISRTPALIFEHVNNSDFKQLYQTLSDYDIRYYLYELLKALDFCHSQGIMHRDVKPHNVMIDAEKRELRLIDWGLAEFYHPRQDYNVRVASRYFKGPELLVDYQCYDYSLDMWSLGCMLASMIFRKEPFFHGHDNYDQLVRIAKVLGTDELYEYIARYHIDLDPRFNDILGRHSRKRWERFIHAENQHLVTPEALDFLDKLLRYDHAERLTAQEAMGHEYFRPVVEAHARANGTEQADGQGASNSASSQSSDAKIDGA has what soluble on expression in E. coli?
Output line: not soluble

Input line: Quick one: soluble on expression in E. coli of MEKEKKGAKHELDLSSILQFVAPGTPLRAGMENVLRANTGGLIVVGYNDKVKEVVDGGFHINTAFSPAHLYELAKMDGAIILSDSGQKILYANTQLMPDATISSSETGMRHRTAERVAKQTGCLVIAISERRNVITLYQENMKY ?
Output line: not soluble

Input line: For the sequence MSMVETAPSKIQVRDLNFYYGKFHALKNINLDIAKNQVTAFIGPSGCGKSTLLRTFNKMYSLYPEQRAEGEILLDGDNILTNTQDIALLRAKVGMVFQKPTPFPMSIYDNIAFGVRLFEKLSRADMDERVQWALTKAALWNETKDKLHQSGYSLSGGQQQRLCIARGIAIRPEVLLLDEPCSALDPISTGRIEELITELKQDYTVVIVTHNMQQAARCSDHTAFMYLGELIEFSNTDDLFTKPAKKQTEDYITGRYG , what soluble on expression in E. coli is on record?
Output line: not soluble

Input line: Dear colleague, I am looking for the recorded soluble on expression in E. coli of the following sequence: MESGREVWPRDPKKAKQAIKQAEFKCEIDDTHETFVSEASRKNYMEAHHLIPLRMQHDFENSLDVVGNIVSICPNCHRLIHYGRDKDKKKVLELLFELEHHHHHH
Output line: soluble
